Value source: patent US10975037B2

- targetSystem: full-length human RORγt (Homo sapiens (Human), UniProt P51449)
- Sequence (P51449 other isoform, or with tags, fused parts or gaps): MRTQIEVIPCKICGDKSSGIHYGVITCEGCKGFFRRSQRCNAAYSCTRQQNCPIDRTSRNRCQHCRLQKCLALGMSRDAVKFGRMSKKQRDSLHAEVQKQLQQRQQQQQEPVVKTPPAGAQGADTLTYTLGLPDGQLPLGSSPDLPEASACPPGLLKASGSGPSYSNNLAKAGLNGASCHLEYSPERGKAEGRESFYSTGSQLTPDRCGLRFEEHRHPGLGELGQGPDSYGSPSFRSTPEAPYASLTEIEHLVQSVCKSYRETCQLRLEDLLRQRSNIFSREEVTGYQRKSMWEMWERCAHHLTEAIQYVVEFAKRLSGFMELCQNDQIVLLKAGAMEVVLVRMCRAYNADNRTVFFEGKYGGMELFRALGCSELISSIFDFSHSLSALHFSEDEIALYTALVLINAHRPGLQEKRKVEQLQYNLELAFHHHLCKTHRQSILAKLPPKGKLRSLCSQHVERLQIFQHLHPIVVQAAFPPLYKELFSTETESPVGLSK
- protocolDetails: RORγt (full-length human) reporter assay, conditions A or B, HEK293T cells
- Format: cell-based
- experimentalParameters: HEK293T cells; read-out: RORγt (FL) Reporter Assay A or B, IC50
propertyName: log10(IC50) (log10 of the value in nM)
In our notation, the value equals log10 of IC50 in nM.

A selection of reference data follows.
molecule: CCn1nc(C(=O)NC[C@]2(O)CC[C@H](S(C)(=O)=O)CC2)c(Cl)c1-c1ccc(N[C@H](C)C(F)(F)F)cc1OC [Example 220]
targetSystem: full-length human RORγt (Homo sapiens (Human), UniProt P51449)
log10(IC50): 3.04
//
molecule: CCn1nc(C(=O)NC[C@H]2CC[C@H](S(C)(=O)=O)CC2)c(Cl)c1-c1ccc(CCC(F)(F)F)cc1OC(F)F [Example 222]
targetSystem: full-length human RORγt (Homo sapiens (Human), UniProt P51449)
log10(IC50): 0.79
//
molecule: CCC(=O)NS(=O)(=O)[C@H]1CC[C@H](CNC(=O)c2nn(CC)c(-c3ccc(CC(C)(C)C(F)(F)F)cc3OC(F)F)c2Cl)CC1 [Example 70]
targetSystem: full-length human RORγt (Homo sapiens (Human), UniProt P51449)
log10(IC50): 1.36
//
molecule: CCn1nc(C(=O)NC[C@]2(O)CC[C@@H](S(C)(=O)=O)CC2)c(C(F)(F)F)c1-c1ccc(N[C@H](C)C(F)(F)F)cc1OC [Example 217]
targetSystem: full-length human RORγt (Homo sapiens (Human), UniProt P51449)
log10(IC50): 1.11
//
molecule: CCn1nc(C(=O)NC[C@H]2CC[C@H](S(=O)(=O)NC(C)=O)CC2)c(Cl)c1-c1ccc(CC(C)(C)C(F)(F)F)cc1OC(F)F [Example 68]
targetSystem: full-length human RORγt (Homo sapiens (Human), UniProt P51449)
log10(IC50): 1.59
//
molecule: CCn1nc(C(=O)NC[C@H]2CC[C@H](S(=O)(=O)NC)CC2)c(Cl)c1-c1ccc(CC(C)(C)C(F)(F)F)cc1OC(F)F [Example 50]
targetSystem: full-length human RORγt (Homo sapiens (Human), UniProt P51449)
log10(IC50): 0.48
//
molecule: CCn1nc(C(=O)NC[C@H]2CC[C@H](S(=O)(=O)NC(N)=O)CC2)c(Cl)c1-c1ccc(CC(C)(C)C(F)(F)F)cc1OC(F)F [Example 69]
targetSystem: full-length human RORγt (Homo sapiens (Human), UniProt P51449)
log10(IC50): 1.71
//
molecule: CCn1nc(C(=O)NC[C@H]2CC[C@H](S(=O)(=O)NC(=O)NC)CC2)c(Cl)c1-c1ccc(CC(C)(C)C(F)(F)F)cc1OC(F)F [Example 71]
targetSystem: full-length human RORγt (Homo sapiens (Human), UniProt P51449)
log10(IC50): 1.11
//
molecule: CCn1nc(C(=O)NC[C@H]2CC[C@H](S(C)(=O)=O)CC2)c(C(F)(F)F)c1-c1ccc(N[C@H](C)C(F)(F)F)cc1OC [Example 218]
targetSystem: full-length human RORγt (Homo sapiens (Human), UniProt P51449)
log10(IC50): 1.79

get_value(item= CCn1nc(C(=O)NC[C@H]2CC[C@H](S(=O)(=O)NC=O)CC2)c(Cl)c1-c1ccc(CC(C)(C)C(F)(F)F)cc1OC(F)F [Example 67] , readout=log10(IC50)) returns 1.75

---

Hi there, I'd appreciate the recorded pIC50 for every entry that follows.
- targetSystem: full-length human RORγt (Homo sapiens (Human), UniProt P51449)
- protocolDetails: RORγt (full-length human) reporter assay, conditions A or B, HEK293T cells
- Assay type: cell-based
- experimentalParameters: RORγt (FL) Reporter Assay A or B, IC50, HEK293T cells
Answers are plain numbers, as −log10 of the molar value.

compound: CCCn1nc(C(=O)NC[C@]2(O)CC[C@@H](S(C)(=O)=O)CC2)c(Cl)c1-c1ccc(C[C@H](C)C(F)(F)F)cc1OC (single isomer, unassigned) [Example 40]
pIC50: 7.89

Below are some compounds; for each one, tell me its pIC50.
1. CCn1nc(C(=O)NC[C@@]2(O)CC[C@H](S(C)(=O)=O)C[C@@H]2O)c(C)c1-c1ccc(C[C@H](C)C(F)(F)F)cc1OC(F)F (stereo in doubt) [Example 57]
2. COCCn1nc(C(=O)NC[C@]2(O)CC[C@@H](S(C)(=O)=O)CC2)c(Cl)c1-c1ccc(CC(C)(C)C(F)(F)F)cc1OC(F)F [Example 149]
3. CCn1nc(C(=O)NC[C@]2(O)CC[C@@H](S(C)(=O)=O)CC2)c(Cl)c1-c1ccc(CCCC(F)(F)F)cc1OC [Example 81]
4. CCn1nc(C(=O)NC[C@]2(O)CC[C@@H](S(C)(=O)=O)CC2)c(Cl)c1-c1ccc(CC(C)(C)CC(F)(F)F)cc1OC(F)F [Example 90]
5. CCn1nc(C(=O)NC[C@H]2CC[C@H](S(C)(=O)=O)CC2)c(Cl)c1-c1ccc(CCC(F)(F)F)cc1OC [Example 38]

1: 7.46; 2: 8.22; 3: 7.89; 4: 8.02; 5: 7.92

---

- targetSystem: full-length human RORγt (Homo sapiens (Human), UniProt P51449)
- protocolDetails: RORγt (full-length human) reporter assay, conditions A or B, HEK293T cells
- Assay type: cell-based
- experimentalParameters: RORγt (FL) Reporter Assay A or B, IC50, HEK293T cells
- Procedure: RORγt (Full-Length Human) Reporter Assay: HEK293T cells were plated at 35,000 per well in 96-well plate in medium of DMEM with 10% FBS. […] Firefly luciferase luminescence was measured using a BMG Pherastar plate reader. […] Renilla luminescence was measured using a BMG Pherastar plate reader. […] IC50s were generated by plotting final Renilla normalized data against compound concentration and percent inhibition was calculated against DMSO control. […]
Counter-ions that a name gives are not always drawn.
The threshold is 0.008 µM. Values of IC50 beneath it are tagged 1.0; values meeting or exceeding it are tagged 0.0.

Worked cases, answers included:
compound: CCn1nc(C(=O)NC[C@]2(C(N)=O)CC[C@@H](S(C)(=O)=O)CC2)c(Cl)c1-c1ccc(N[C@H](C)C(F)(F)F)cc1OC [Example 35]
targetSystem: full-length human RORγt (Homo sapiens (Human), UniProt P51449)
className: 0.0
//
compound: CCn1nc(C(=O)NC[C@@]2(O)CC[C@H](S(C)(=O)=O)C[C@@H]2O)c(C)c1-c1ccc(C[C@@H](C)C(F)(F)F)cc1OC(F)F (stereo in doubt) [Example 141]
targetSystem: full-length human RORγt (Homo sapiens (Human), UniProt P51449)
className: 0.0
//
compound: CCn1nc(C(=O)NC[C@H]2CC[C@@H](S(C)(=O)=O)CN2)c(Cl)c1-c1ccc(CC(C)(C)C(F)(F)F)cc1OC(F)F (stereo in doubt) [Example 11, Hydrobromide]
targetSystem: full-length human RORγt (Homo sapiens (Human), UniProt P51449)
className: 0.0

Bench note: check whether CCn1nc(C(=O)NC[C@H]2CC[C@H](S(N)(=O)=O)CC2)c(Cl)c1-c1ccc(C[C@@H](C)C(F)(F)F)cc1OC(F)F (single isomer, unassigned) [Example 139] shows IC50 below 0.008 µM
1.0

---

- targetSystem: UniProtKB P51449
- protocolDetails: RORγt (full-length human) reporter assay, conditions A or B, HEK293T cells
- Type: cell-based
- experimentalParameters: HEK-293T, read-out: RORγt (FL) Reporter Assay A or B, % inhibition
- Method: RORγt (Full-Length Human) Reporter Assay: HEK293T cells were plated at 35,000 per well in 96-well plate in medium of DMEM with 10% FBS. […] Firefly luciferase luminescence was measured using a BMG Pherastar plate reader. […] Renilla luminescence was measured using a BMG Pherastar plate reader. […] IC50s were generated by plotting final Renilla normalized data against compound concentration and percent inhibition was calculated against DMSO control. […]
Hi there, I'd appreciate the recorded inhibition at 0.67 µM for every entry that follows.
Param answer (str): number followed by unit.

A selection of reference data follows.
compound: CCn1nc(C(=O)NC[C@H]2CC[C@H](S(C)(=O)=O)CC2)c(Cl)c1-c1ccc(CC(C(F)(F)F)C(F)(F)F)cc1OC [Example 84]
targetSystem: UniProtKB P51449
propertyName: inhibition at 0.67 µM
experimentalResult: 87%
//
compound: CCn1nc(C(=O)NC[C@]2(O)CC[C@@H](S(C)(=O)=O)CC2)c(Cl)c1-c1ccc(CCC(F)(F)F)cc1Cl [Example 173]
targetSystem: UniProtKB P51449
propertyName: inhibition at 0.67 µM
experimentalResult: 36%
//
compound: CCn1nc(C(=O)NC[C@H]2CC[C@H](S(C)(=O)=O)CC2)c(Cl)c1-c1ccc(CCC(F)(F)F)cc1OC [Example 38]
targetSystem: UniProtKB P51449
propertyName: inhibition at 0.67 µM
experimentalResult: 84%
//
compound: CCn1nc(C(=O)NC[C@]2(CO)CC[C@@H](S(C)(=O)=O)CC2)c(Cl)c1-c1ccc(CC(C)C(F)(F)F)cc1OC (stereo partly drawn) [Example 92]
targetSystem: UniProtKB P51449
propertyName: inhibition at 0.67 µM
experimentalResult: 87%
//
compound: CCn1nc(C(=O)NC[C@H]2CC[C@H](S(C)(=O)=O)CC2)c(Cl)c1-c1ccc(CCC(F)(F)F)cc1Cl [Example 174]
targetSystem: UniProtKB P51449
propertyName: inhibition at 0.67 µM
experimentalResult: 40%

We next turn to a different compound, shown below.
get_value(item= CCn1nc(C(=O)NC[C@H]2CC[C@H](S(C)(=O)=O)CC2)c(Cl)c1-c1ccc(OC2CCC(F)(F)CC2)cc1OC [Example 219] , readout=inhibition at 0.67 µM) returns 98%
